Assignment: determine reported IC50 for the given molecules.
Test system: HT-29
Assay: In vitro cell experiment (MTT), HT-29
Assay type: cell-based
Conditions: 72 h, human colon carcinoma cells (expressing both c-KIT and PDGFR)
Method: Cells in logarithmic growth phase were seeded at a certain density in a 96-well plate (200 μL/well). […] Finally the optical density (OD) of each sample was measured in a micro-plate reader at 550 nm. Cell inhibition rate was calculated according to the following formula: […] According to cell inhibition rates, IC50 was calculated by LOGIT method. The experiments were repeated twice and the data was expressed as means±SD.
Give bare numbers, in µM.

Example entries and their recorded answers appear below.
{"columns": ["Molecule", "Output Unit", "Numeric Readout"],
 "data": [
  ["COc1cc2c(Nc3ccc(F)c(Cl)c3)ncnc2cc1OCCCN(C)C [Compound 38]", "µM", 2.66],
  ["COc1cc2c(Nc3ccc(F)c(Cl)c3)ncnc2cc1OCCN1CCCC1 [Compound 20]", "µM", 2.23],
  ["COc1cc2c(Nc3ccc(Br)cc3F)ncnc2cc1OCCCN(C)C [Compound 29]", "µM", 2.17],
  ["COc1cc2c(Nc3ccc(F)c(Cl)c3)ncnc2cc1OCCCCCC(N)=O [Compound 24]", "µM", 1.84]
]}

Pending molecule:
Report IC50, nothing else, for this molecule: COc1cc2c(Nc3ccc(F)c(Cl)c3)ncnc2cc1OCCCCN(C)C [Compound 37]
2.5

###

Could you please report measured MTD for the items listed next?
Experiment: Mouse maximum tolerated dose (MTD) experiment
Conditions: in vivo, mice, oral, administered 7 days then observed 7 days

Worked set:
{"columns": ["Line Notation", "MTD"],
 "data": [
  ["COc1cc2c(Nc3ccc(Br)cc3F)ncnc2cc1OCCCCCC(N)=O", "> 1000 mg/kg"],
  ["COc1cc2c(Nc3ccc(Br)cc3F)ncnc2cc1OCCCn1ccnc1", "62.5 to 125 mg/kg"],
  ["COc1cc2c(Nc3ccc(F)c(Cl)c3)ncnc2cc1OCCN1CCCC1", "125 to 250 mg/kg"],
  ["COc1cc2c(Nc3ccc(F)c(Cl)c3)ncnc2cc1OCCCN(C)C", "125 to 250 mg/kg"],
  ["COc1cc2c(Nc3ccc(F)c(Cl)c3)ncnc2cc1OCc1cnc(C)s1", "500 to 1000 mg/kg"],
  ["COc1cc2c(Nc3ccc(Br)cc3F)ncnc2cc1OCCCCN(C)C", "250 to 500 mg/kg"],
  ["COc1cc2c(Nc3ccc(F)c(Cl)c3)ncnc2cc1OCCCN1CCCC1", "62.5 to 125 mg/kg"],
  ["COc1cc2c(Nc3ccc(Br)cc3F)ncnc2cc1OCCCCCC(=O)N(C)C", "500 to 1000 mg/kg"],
  ["COc1cc2c(Nc3ccc(Br)cc3F)ncnc2cc1OCc1cccc(C)n1", "62.5 to 125 mg/kg"],
  ["COc1cc2c(Nc3ccc(Br)cc3F)ncnc2cc1OCCCN1CCCC1", "250 to 500 mg/kg"]
]}

// batch mode: one MTD value per listed entry
1. COc1cc2c(Nc3ccc(Br)cc3F)ncnc2cc1OCCCN(C)C
2. COc1cc2c(Nc3ccc(Br)cc3F)ncnc2cc1OCCCCN1CCCC1
3. COc1cc2c(Nc3ccc(F)c(Cl)c3)ncnc2cc1OCCCCN1CCCC1
4. COc1cc2c(Nc3ccc(Br)cc3F)ncnc2cc1OCc1csc(C)n1
5. COc1cc2c(Nc3ccc(F)c(Cl)c3)ncnc2cc1OCCCCCC(N)=O
6. COc1cc2c(Nc3ccc(F)c(Cl)c3)ncnc2cc1OCCCCN(C)C
7. COc1cc2c(Nc3ccc(Br)cc3F)ncnc2cc1OCc1cccc(C#N)c1

125 to 250 mg/kg
250 to 500 mg/kg
125 to 250 mg/kg
500 to 1000 mg/kg
125 to 250 mg/kg
250 to 500 mg/kg
500 to 1000 mg/kg

Give me MTD for each of these compounds, listed below.
1. COc1cc2c(Nc3ccc(Br)cc3F)ncnc2cc1OCCn1ccnc1
2. COc1cc2c(Nc3ccc(Br)cc3F)ncnc2cc1OCc1ccc2c(c1)OCO2
3. COc1cc2c(Nc3ccc(Br)cc3F)ncnc2cc1OCCCCC(N)=O

1: 125 to 250 mg/kg; 2: 500 to 1000 mg/kg; 3: 62.5 to 125 mg/kg

###

Form: system (FGFR-1 (Homo sapiens, UniProt P11362)), quantity (IC50), values below.
Numbers only, in nM.

{"columns": ["Compound", "Output Unit", "Numeric Readout"],
 "data": [
  ["COc1cc2c(Nc3ccc(F)c(Cl)c3)ncnc2cc1OCCCN1CCCC1", "nM", 19.6]
]}

Please supply IC50 for each of the following items, keeping them in order.
1. COc1cc2c(Nc3ccc(Br)cc3F)ncnc2cc1OCCCCN1CCCC1
2. COc1cc2c(Nc3ccc(Cl)cc3F)ncnc2cc1OCCCN1CCCC1 [Compound 44, reference compound]

[25.8, 39.8]

Fill in IC50 for each of the 2 compounds listed.
1. COc1cc2c(Nc3ccc(Br)cc3F)ncnc2cc1OCCCCN(C)C
2. COc1cc2c(Nc3ccc(F)c(Cl)c3)ncnc2cc1OCCCN(C)C

1: 17.8; 2: 28.9

###

System: PC-9
Test: In vitro cell experiment (MTT), PC-9
Assay type: cell-based
Conditions: 72 h, human non-small-cell lung carcinoma cells (EGFR1 19 exon mutation)
Test Readout: IC50 (nM)
Numbers only, in nM.

Some compounds with known IC50 results, for comparison:
{"columns": ["Compound", "Numeric Readout"],
 "data": [
  ["COc1cc2c(Nc3ccc(F)c(Cl)c3)ncnc2cc1OCCCN(C)C [Compound 38]", 7.7],
  ["COc1cc2c(Nc3ccc(Br)cc3F)ncnc2cc1OCCCCN1CCCC1 [Compound 30]", 7]
]}

Go through the items and report each one's IC50.
1. COc1cc2c(Nc3ccc(Br)cc3F)ncnc2cc1OCCn1ccnc1 [Compound 34]
2. COc1cc2c(Nc3ccc(Br)cc3F)ncnc2cc1OCCCN1CCCC1 [Compound 19]

5.7
6.3

Below are 2 compounds. Give each one its IC50.
1. COc1cc2c(Nc3ccc(Br)cc3F)ncnc2cc1OCCCCCC(=O)N(C)C [Compound 32]
2. COc1cc2c(Nc3ccc(Br)cc3F)ncnc2cc1OCCCCN(C)C [Compound 28]

6.7
9.3

###

pIC50, AXL (Homo sapiens): measured values
Give bare numbers, as −log10 of the molar value.

Observe how each entry below is paired with its result.
{"columns": ["Compound", "Target Of Assay", "pIC50"],
 "data": [
  ["COc1cc2c(Nc3ccc(Cl)cc3F)ncnc2cc1OCCCN1CCCC1 [Compound 44, reference compound]", "AXL (Homo sapiens)", 5.52],
  ["COc1cc2c(Nc3ccc(F)c(Cl)c3)ncnc2cc1OCCCCN(C)C", "AXL (Homo sapiens)", 5.77],
  ["COc1cc2c(Nc3ccc(Br)cc3F)ncnc2cc1OCCCN(C)C", "AXL (Homo sapiens)", 5.74],
  ["COc1cc2c(Nc3ccc(Br)cc3F)ncnc2cc1OCCCN1CCCC1", "AXL (Homo sapiens)", 5.81]
]}

Now look at this entry.
Supply recorded pIC50 for COc1cc2c(Nc3ccc(Br)cc3F)ncnc2cc1OCCCN1CCCCC1 [Compound 45, reference compound] here.
5.52

###

Target: PDGFRβ (Homo sapiens, UniProt P09619)
Sequence (P09619 33-1106, species assumed): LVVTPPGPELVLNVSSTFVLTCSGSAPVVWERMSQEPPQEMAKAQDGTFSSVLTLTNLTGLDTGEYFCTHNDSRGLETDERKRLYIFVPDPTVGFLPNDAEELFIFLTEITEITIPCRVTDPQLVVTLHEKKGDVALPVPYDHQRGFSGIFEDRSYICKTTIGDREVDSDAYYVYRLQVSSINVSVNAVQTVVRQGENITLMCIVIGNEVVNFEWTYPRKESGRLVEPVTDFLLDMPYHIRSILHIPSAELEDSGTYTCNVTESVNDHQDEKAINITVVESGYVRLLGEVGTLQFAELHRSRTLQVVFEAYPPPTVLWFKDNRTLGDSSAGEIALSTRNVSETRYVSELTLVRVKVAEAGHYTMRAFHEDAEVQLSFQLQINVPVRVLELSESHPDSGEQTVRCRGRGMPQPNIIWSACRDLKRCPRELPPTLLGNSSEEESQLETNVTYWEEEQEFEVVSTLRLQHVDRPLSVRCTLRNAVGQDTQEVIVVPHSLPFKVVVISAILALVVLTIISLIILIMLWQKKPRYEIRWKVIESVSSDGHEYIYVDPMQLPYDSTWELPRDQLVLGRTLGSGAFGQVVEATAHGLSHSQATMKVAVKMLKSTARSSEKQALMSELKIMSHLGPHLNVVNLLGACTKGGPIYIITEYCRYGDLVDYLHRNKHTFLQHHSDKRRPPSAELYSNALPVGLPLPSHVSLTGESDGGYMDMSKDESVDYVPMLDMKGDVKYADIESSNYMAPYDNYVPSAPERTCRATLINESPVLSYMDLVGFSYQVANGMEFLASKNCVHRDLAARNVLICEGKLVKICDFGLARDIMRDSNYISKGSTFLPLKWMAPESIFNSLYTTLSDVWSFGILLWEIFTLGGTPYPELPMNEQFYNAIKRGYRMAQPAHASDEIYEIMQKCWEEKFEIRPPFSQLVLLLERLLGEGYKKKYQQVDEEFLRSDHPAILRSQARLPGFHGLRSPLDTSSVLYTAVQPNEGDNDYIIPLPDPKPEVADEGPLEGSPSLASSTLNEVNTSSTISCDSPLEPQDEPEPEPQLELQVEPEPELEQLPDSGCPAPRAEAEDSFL
Test Readout: pIC50
Give bare numbers, as −log10 of the molar value.

{"columns": ["Compound", "pIC50"],
 "data": [
  ["COc1cc2c(Nc3ccc(Br)cc3F)ncnc2cc1OCCCCN1CCCC1", 6.61],
  ["COc1cc2c(Nc3ccc(F)c(Cl)c3)ncnc2cc1OCCCN1CCCC1", 6.59],
  ["COc1cc2c(Nc3ccc(Br)cc3F)ncnc2cc1OCCCN1CCCC1", 6.95]
]}

Provide pIC50 for all items below, preserving their order.
1. COc1cc2c(Nc3ccc(F)c(Cl)c3)ncnc2cc1OCCCCN(C)C
2. COc1cc2c(Nc3ccc(Br)cc3F)ncnc2cc1OCCCN(C)C
3. COc1cc2c(Nc3ccc(Cl)cc3F)ncnc2cc1OCCCN1CCCC1 [Compound 44, reference compound]

1: 6.72; 2: 6.61; 3: 6.51

// input: 4 compounds below; output: pIC50 for each
1. COc1cc2c(Nc3ccc(Br)cc3F)ncnc2cc1OCCCCN(C)C
2. COc1cc2c(Nc3ccc(Br)cc3F)ncnc2cc1OCCCN1CCCCC1 [Compound 45, reference compound]
3. COc1cc2c(Nc3ccc(F)c(Cl)c3)ncnc2cc1OCCCCN1CCCC1
4. COc1cc2c(Nc3ccc(F)c(Cl)c3)ncnc2cc1OCCCN(C)C

1: 6.81; 2: 6.48; 3: 6.62; 4: 6.57

###

Test system: HT-29
Assay: In vitro cell experiment (MTT), HT-29
Format: cell-based
Settings: 72 h, human colon carcinoma cells (expressing both c-KIT and PDGFR)
Test Readout: pIC50
Give bare numbers, as −log10 of the molar value.

Consider the worked cases shown below.
{"columns": ["Compound", "pIC50"],
 "data": [
  ["COc1cc2c(Nc3ccc(Br)cc3F)ncnc2cc1OCc1ccc2c(c1)OCO2 [Compound 1]", 5.55],
  ["COc1cc2c(Nc3ccc(Br)cc3F)ncnc2cc1OCCCN1CCCC1 [Compound 19]", 5.78],
  ["COc1cc2c(Nc3ccc(F)c(Cl)c3)ncnc2cc1OCCCN1CCCC1 [Compound 39]", 5.54],
  ["COc1cc2c(Nc3ccc(F)c(Cl)c3)ncnc2cc1OCc1cnc(C)s1 [Compound 27]", 5.53],
  ["COc1cc2c(Nc3ccc(Cl)cc3F)ncnc2cc1OCCCN1CCCC1 [Compound 44, reference compound]", 5.46]
]}

State, in one line, measured pIC50 of COc1cc2c(Nc3ccc(Br)cc3F)ncnc2cc1OCCCCN1CCCC1 [Compound 30]
5.66
